# system.name: pTyr-containing peptide (pEZ) derived from Ezrin, PPV{pTyr}EPVS
# assay: phage ELISA, phage-displayed clone on immobilized peptide
Listed binders paired with reported binding signal for pEZ over that for the unphosphorylated peptide EZ
readout.kind: binding signal for pEZ over that for the unphosphorylated peptide EZ

sFes^4, superbinder Fes SH2 domain variant (designed binder) MKIEEHHHHHHSSGKLGLNDIFEAQKIEWHESSGEDLYFQSGTTMDDYKDDDDKGGSEVQKPLHEQLWYHGAIPRAEVAELLVHSGDFLVRESQGRKVYVLSVLWDGLPRHFIIQSLDNLYRLEGEGFPSIPLLIDHLLSTQQPLTKKSGVVLHRAVPSR = 10 fold
sFes^1 (SuperFes), superbinder Fes SH2 domain variant (designed binder) MKIEEHHHHHHSSGKLGLNDIFEAQKIEWHESSGEDLYFQSGTTMDDYKDDDDKGGSEVQKPLHEQLWYHGAIPRAEVAELLVHSGDFLVREGQSQPDYVLSVLWDGLPRHFIIQSLDNLYRLEGEGFPSIPLLIDHLLSTQQPLTKKSGVVLHRAVPSR = 10 fold
sFes^5, superbinder Fes SH2 domain variant (designed binder) MKIEEHHHHHHSSGKLGLNDIFEAQKIEWHESSGEDLYFQSGTTMDDYKDDDDKGGSEVQKPLHEQLWYHGAIPRAEVAELLVHSGDFLVRESISKQGYVLSVLWDGLPRHFLIQSLDNLYRLEGEGFPSIPLLIDHLLSTQQPLTKKSGVVLHRAVPSR = 10 fold
